- Tested on: Plasmodium falciparum
- assay.notes: GSK_TCMDC: Inhibition of Plasmodium falciparum 3D7 in whole erythrocytes, using parasite LDH activity as an index of growth.
- Format: functional, organism-based
- assay.setup: Plasmodium falciparum, 3D7
Consider the reported XC50 of an entry and match it to a band in c1: < 800 nM; c2: ≥ 800 nM and < 1000 nM; c3: ≥ 1000 nM

Below, 5 compounds whose answers are already recorded.
compound | assigned.label
O=C(c1ccc(-c2ccc(-c3nc4cc(F)ccc4[nH]3)cc2)cc1)N1CCCCC1CN1CCC(O)C1 (centres undefined) | c1
COc1ccc(C(=O)N2CCc3cc4nccc(N5CCN6CCC[C@H]6C5)c4cc32)cc1 | c2
CCCCCCCC1CCN(C[C@H](O)c2ccnc3ccc(OC)cc23)CC1 | c2
O=C(/C=C/c1ccc(Cl)c(Cl)c1)NCCCCCN1CCC(NC(=O)c2cc(Cl)ccc2F)CC1 | c3
CC(=O)Nc1ccc(CN2CCC(NC(=O)c3ccc(-c4cccc(C(F)(F)F)c4)s3)CC2)cc1 | c2

Next item in the queue.
-- ask Determine which band this compound sits in: `Nc1nc(N)c2cc(S(=O)(=O)c3ccc4ccccc4c3)ccc2n1`
-- reply c1

====

- Tested on: Plasmodium falciparum
- assay.notes: GSK_TCMDC: Inhibition of Plasmodium falciparum 3D7 in whole erythrocytes, using parasite LDH activity as an index of growth.
- Format: functional, organism-based
- assay.setup: Plasmodium falciparum, 3D7
Catalogue of compounds with associated XC50
Respond numerically; units are µM and should not be typed.

structure.smiles.string | measurement.target | XC50 / µM
Cc1ccc(CN2CCCN(Cc3cccc(C(=O)Nc4ccc(C(C)(C)C)cc4)c3)CC2)s1 | Plasmodium falciparum | 1.13

-- ask Record lookup: for Plasmodium falciparum, what XC50 belongs to `Cc1cccc2nc(-c3ccc(-c4cccc(CNCCCN5CCCC5=O)c4)s3)[nH]c12` ?
-- reply 0.59

-- ask Let us now turn to `Nc1ncc(-c2ccsc2)c2ccc(-c3cnc[nH]3)cc12`
-- reply 0.573

====

- Tested on: Plasmodium falciparum
- assay.notes: GSK_TCMDC: Inhibition of Plasmodium falciparum 3D7 in whole erythrocytes, using parasite LDH activity as an index of growth.
- Type: functional, organism-based
- assay.setup: Plasmodium falciparum, 3D7
Catalogue of compounds with associated log10(XC50)
Recorded XC50 (log10, nM)

compound | test.readout | assay.value
O=[N+]([O-])c1ccccc1/C=N/Nc1ccnc2ccc(C(F)(F)F)cc12 | log10(XC50) | 2.85
Cc1cccc2nc(-c3ccc(-c4ccc(NC(=O)Nc5ccsc5)cc4)cc3)[nH]c12 | log10(XC50) | 2.23
CCOc1cc(C(=O)Nc2ccccc2N2CCN(S(C)(=O)=O)CC2)cc(OCC)c1OCC | log10(XC50) | 2.81
CCc1ccc(NC(=O)c2ccc(CN3CCCN(Cc4cccc(O)c4)CC3)cc2)cc1 | log10(XC50) | 2.83
CN1CCN(c2cc3c(cc2Cl)CCN3C(=O)Cc2ccc(Cl)c(NC(=O)Nc3cccc([N+](=O)[O-])c3)c2)CC1 | log10(XC50) | 2.86

Field: next compound
-- ask Record lookup: for Plasmodium falciparum, what log10(XC50) belongs to O=C1C(C2CCC(c3ccc(Cl)cc3)CC2)=C2OCC3COC2(O3)c2ccccc21 (stereo unspecified) ?
-- reply 1.59
